Assay: inhibition of RSV-induced cytopathic effect – HEp-2 cells, primary 10 µM value included (AID 2391)
Details: at 10 µM, hits give high values
Screen size: about 310,000 compounds; about 410 (0.13%) were called active. About 2% were inconclusive and are not listed. Only a sample is shown. Measured potencies and affinities stand elsewhere.
Measured CPE inhibition, listed per entry.
observable: CPE inhibition (%)

> print(dat)
                                    compound  value.reported
 1  O=C(CCCCCNC(=O)N1CCn2c1nc1ccccc12)N[C@@H](Cc1ccccc1)C(=O)O            0.73
 2      CC(C)C(=O)Nc1cccc(-c2cnc3ccccc3n2)c1           -1.56
 3  O=C(C1=COCCO1)N1CCN(S(=O)(=O)c2cccc(F)c2)CC1            1.49
 4  O=C(c1ccc(Br)o1)N1CCN(c2ccc3nnc(-c4ccc(F)cc4)n3n2)CC1            1.21
 5         c1ccc(-c2nnc3ccc(N4CCCC4)nn23)cc1            13.9
 6  CN1CCN(C(=O)c2cc(Cl)cc(Cl)c2NC(=O)c2ccco2)CC1            0.57
 7             O=C1CS/C(=N/N=C\c2ccn[nH]2)N1            6.91
 8  O=C1c2cccnc2C(Nc2ccccc2Br)N1Cc1ccco1 (stereo not drawn)            4.55
 9  O=C1c2cccnc2C(Nc2cccc(F)c2)N1Cc1ccco1 (stereo not drawn)              12
10      COc1cc(OC)cc(C(=O)Nc2cccc3c2CCCC3)c1           -0.47
11   Cc1c(C(=O)O)cccc1-c1ccc(/C=N/n2cnnc2)o1            0.79
12  COc1ccc(CN2C(=O)c3cccnc3C2=O)cc1S(=O)(=O)N(C)c1cccc(C)c1             1.8
13  c1ccc(N2CCN(c3ncnc4scc(-c5cccs5)c34)CC2)cc1            12.1
14  COc1ccc(OCCOC(=O)C(C)NS(=O)(=O)c2ccc(NC(C)=O)cc2)cc1 (stereo not drawn)            0.13
15  CCCCC(NC(=O)Cc1c(C)c2cc3c(C)c(C)oc3c(C)c2oc1=O)C(=O)O (stereo not drawn)            1.13
16  COc1cc(NC2c3ncccc3C(=O)N2Cc2ccco2)cc(OC)c1 (stereo not drawn)            9.47
17           C/C=C/C(=O)Nc1nnc(-c2ccccc2C)s1            0.32
18  O=C(OC(C(=O)NC1CCCC1)c1ccccc1F)c1ccco1 (stereo not drawn)            0.45
19  COc1ccc(OCc2nnc(SCC(=O)Nc3cccc(Cl)c3)o2)cc1            2.31
20  Cc1ccc(C(=O)COC(=O)c2ccncc2)cc1[N+](=O)[O-]            1.18
21  COc1ccc(OC)c(NC2c3ncccc3C(=O)N2Cc2ccco2)c1 (stereo not drawn)            6.51
22  Cc1cccc(C)c1NC(=O)CN(C)CC(=O)c1c(N)n(Cc2ccccc2)c(=O)n(C)c1=O            0.19
23  CN(C)S(=O)(=O)c1cccc(NC(=O)COC(=O)CCC(=O)c2cccs2)c1           -1.26

----------
Test: inhibition of RSV-induced cytopathic effect – HEp-2 cells, primary 10 µM value included (AID 2391)
Conditions: at 10 µM, hits give high values
The whole screen tested about 310,000 compounds, of which about 410 (0.13%) were called active. Roughly 2% stayed inconclusive and do not appear here. These entries were drawn from the full list. Potency and affinity values are given separately.
Here, each record is paired with measured CPE inhibition data.
observable: CPE inhibition (%)

> print(dat)
                                    molecule  value.reported
 1  Cc1ccc(-n2c(=O)c3c4c(sc3n(Cc3cc(=O)n5ccccc5n3)c2=O)CCC4)cc1C            9.89
 2  O=c1c2sccc2nc(SCc2cc(=O)n3ccccc3n2)n1Cc1ccccn1            0.36
 3  O=C(COC(=O)/C=C/c1ccc(C(F)(F)F)cc1)NCC1CCCO1 (configuration not stated)           -1.68
 4        c1ccc(Cn2nnc3c(N4CCOCC4)ncnc32)cc1            1.51
 5  O=C(N/C(=C/c1cccc([N+](=O)[O-])c1)C(=O)N1CCCCC1)c1ccco1           -0.57
 6  N#Cc1c(N2CCCCC2)nc(N)c2c(N)nc3c(c12)CC(c1ccccc1)O3 (configuration not stated)            18.6
 7  COc1ccc(OC)c(-n2c(C)cc(/C=C3\C(=N)N4N=C(CC(=O)N5CCOCC5)SC4=NC3=O)c2C)c1              17
 8  COc1ccc(-n2c(C)cc(C(=O)Cn3nnc4ccccc4c3=O)c2C)cc1            2.15
 9  CCN1C(=O)N[C@@H](c2ccc(Br)cc2)C(C(=O)OC)=C1C            5.67
10  Cc1ccc(-n2c(=O)c3c(C)c(C)sc3n(Cc3cc(=O)n4ccccc4n3)c2=O)cc1C            11.6
11  COC(=O)C1=C(C)N(Cc2ccccc2)C(=S)N[C@H]1c1ccccc1            14.1
12             CNc1oc(-c2cccc3ccccc23)nc1C#N            22.2
13  CC(=O)C1=C(C)N(Cc2ccccc2)C(=O)N[C@@H]1c1cccc(C(F)(F)F)c1            0.41
14         c1ccc(Cn2nnc3c(N4CCCC4)ncnc32)cc1           -0.08
15  CCc1nc(SCC(=O)N2CC(=O)Nc3ccccc32)c2c(C)c(C)sc2n1            0.22
16  COC(=O)NNC(=O)C(C)Oc1ccc(Cl)cc1Cl (configuration not stated)            0.74
17  Cc1cccc2nc(-c3cccc(NC(=O)c4ccc(Cl)cc4)c3)cn12            6.87
18  Cc1cc(/C=C2\C(=N)N3N=C(CC(=O)N4CCOCC4)SC3=NC2=O)c(C)n1-c1ccccc1            7.24
19  C#CCn1c(S(=O)(=O)Cc2ccccc2Cl)nc(-c2ccccc2)c1-c1ccccc1           -0.31
20            COc1ccc(OCc2cccc(C(=O)O)c2)cc1            0.64
21  COc1ccc(C(C)=O)cc1CSc1nc2ccccc2c(=O)n1-c1ccccc1            3.07
22  CCN1C(=O)N[C@H](c2ccc(Br)cc2)C(C(=O)OC)=C1C            0.05
23      C=CCN(CC(=O)Nc1c(C)cccc1CC)C(=O)SCCC            0.77
24            CCNc1oc(-c2cccc3ccccc23)nc1C#N              31
25  CCOC(=O)[C@H]1[C@H]2COc3cc(OC)ccc3[C@@H]2N2C(=O)CN(Cc3ccc(OC)cc3)C(=O)[C@@]12C            2.03
26      Cc1ccccc1-c1cc2nc(C)c(C)c(=O)n2[nH]1            2.53
27  CC(=O)C1=C(C)N(Cc2ccccc2)C(=O)N[C@H]1c1cccc(C(F)(F)F)c1            4.45
28  COc1ccc(-n2c(C)cc(/C=C3\C(=N)N4N=C(CC(=O)N5CCOCC5)SC4=NC3=O)c2C)cc1            3.44
29   Cc1nc2ccc(N=NC3=C(O)CC(C)(C)CC3=O)cc2s1            2.75
30     Cc1ccc(S(=O)(=O)NC(C)(C)CN2CCNCC2)cc1            -0.5
31  O=C(Cn1nc(-c2ccccc2)c2ccccc2c1=O)Nc1ccc(F)cc1            2.89
32  Cc1cc(C(=O)O[C@H]2[C@H](Cc3ccccc3)NS(=O)(=O)[C@H]3C[C@@H]4C=C[C@]23O4)ccc1[N+](=O)[O-]             1.3
33  COCC1CCN(C(=O)C2CCC(=O)N(Cc3cccc(F)c3)C2)CC1 (configuration not stated)            2.17
34  Cc1cc(C(=O)Cn2nnc3ccccc3c2=O)c(C)n1-c1c(C)n(C)n(-c2ccccc2)c1=O            2.35
35           CNc1cc(C(F)(F)F)nc(-c2ccccn2)n1           -0.28
36  CCc1cc(S(=O)(=O)N2CCN(C(=O)c3ccco3)CC2)ccc1OC            3.94
37  COc1ccc(CC(=O)Nc2cccc(-c3cn4ccccc4n3)c2)cc1            20.4
38  COc1cccc(-n2c(C)cc(/C=C3/C(=N)N4C(=NC3=O)SN=C4S(C)(=O)=O)c2C)c1            16.5
39  Cc1sc2nc(C3CC3)nc(SCC(=O)N3CCc4ccccc4C3)c2c1C            1.85
40  COc1cccc(OCCCN2CCN(S(=O)(=O)c3ccc(NC(C)=O)cc3)CC2)c1            3.71
41  CCOc1ccc(-n2c(=O)c3sccc3n(Cc3ccc(C)cc3)c2=O)cc1            2.63
42  CCC(=O)Nc1nnc(SCC(=O)c2ccc3c(c2)Cc2ccccc2-3)s1            42.4
